system: NCI-H522; assay: NCI tumour cell line growth inhibition, 48 h
Activity calls are given as the source filed them. Rule as the data show it: active = GI50 up to about 1.1 µM and inactive = higher. Where a SMILES comes first, the peptide text is derived from it. The star is where a group is joined. Fmoc = O=C(OCC1c2ccccc2-c2ccccc21)*; OtBu = CC(C)(C)O*
parameter: GI50

In the examples that follow, each entry is paired with its recorded GI50.
molecule: COCOCC1CCCN1CN1CCC[C@H]1COCOC (stereo partly drawn)
GI50: > 100 µM (inactive)

molecule: CCOC(=O)CCC(NC(=O)c1ccc(Oc2nc3ccc(C(F)(F)F)cc3nc2-c2ccccc2)cc1)C(=O)OCC (stereo not drawn)
GI50: 9.57 µM (inactive)

molecule: Cc1nc2ccccc2c(=O)n1NC(=S)Nc1cccc(Cl)c1
GI50: 33.7 µM (inactive)

molecule: CC1(C)O[C@@H]2COC(=O)[C@@H]2O1
GI50: > 100 µM (inactive)

molecule: O=C1/C(=C/c2ccc([N+](=O)[O-])cc2)Oc2cc(O)ccc21
GI50: 24.8 µM (inactive)

Which measured GI50 belongs to CN(C)C(=N)NC(N)=S , tested on NCI-H522?
> 100 µM (inactive)

# returns recorded GI50 (system: NCI-H522) for CC(=O)OCC1OC(n2c(=S)n(-c3ccccc3)c(=O)c3cc(Br)ccc32)C(OC(C)=O)C(OC(C)=O)C1OC(C)=O (stereo not drawn)
> 100 µM (inactive)

Given the entry O=C(O)C[C@@H](Cl)[C@H](NC(=O)OCc1ccccc1)C(=O)O , what GI50 was observed with NCI-H522?
> 100 µM (inactive)

Param readout= GI50; system= NCI-H522; entry= CC1CC(C)CC(C)C(O)/C(C#N)=C/C=C/CC(C2CCCC2C(=O)O)OC(=O)CC(O)C(C)C1 (stereo not drawn) ; returns value.
< 0.01 µM (active)

Give recorded GI50 with NCI-H522 for the following molecule: CC1(C)[C@@H]2C[C@H]1c1cnc(-c3ccccn3)cc1C2CCCCC[C@@H]1c2cc(-c3ccccn3)ncc2[C@@H]2C[C@H]1C2(C)C (stereo partly drawn)
1.71 µM (inactive)

Query the reported GI50 for NCI-H522; item: Cc1cn([C@@H]2O[C@H](CO[Si](C)(C)C(C)(C)C)[C@]3(O[C@H]3C(=O)NO)[C@H]2O[Si](C)(C)C(C)(C)C)c(=O)[nH]c1=O
1.52 µM (inactive)

NCI-H522 / GI50 / COc1cc(C2C(Cl)C(=O)N2NC(=O)c2ccccc2O)cc(OC)c1OC (stereo not drawn) : value?
2.87 µM (inactive)

Param readout= GI50; system= NCI-H522; entry= CC(C)C(NC(=O)OCC1c2ccccc2-c2ccccc21)C(=O)NC(CCC(=O)OC(C)(C)C)C(=O)OC(C)(C)C (stereo not drawn) (Fmoc-Val-Glu(OtBu)-OtBu; configuration not given here) ; returns value.
> 45.1 µM (inactive)

Form entry - test system: NCI-H522; read-out: GI50; molecule: CN(C)c1ccc(/C=C(\NC(=O)c2ccccc2)C(=O)NC(CCC(=O)O)C(=O)O)cc1 (stereo not drawn)
> 100 µM (inactive)

* * *

test system: OVCAR-5; test: NCI tumour cell line growth inhibition, 48 h
Where a name gives a salt, the structure may show the parent alone. Active and inactive are the calls of the source. No stated cut-off is given here; in the data, active = GI50 up to about 1.1 µM and inactive = higher. Residues, ends and D or L forms follow the SMILES beside them. *: point of attachment. Tfa = O=C(C(F)(F)F)*
parameter: GI50

molecule: CCOC(=O)C1(C)CCCc2sc(N)c(C#N)c21 (stereo unspecified)
reported_value: > 100 µM (inactive)
--
molecule: CCOC(=O)c1cc(C)nc2c1c(=O)n(-c1ccccc1)c(=O)n2CCCCN1CCN(c2ccccc2)CC1
reported_value: > 100 µM (inactive)
--
molecule: O=C(O)CC(NC(=O)C(F)(F)F)C(=O)NC(Cc1ccc(O)cc1)C(=O)O (stereo not drawn) (Tfa-Asp-Tyr-OH; configuration not given here)
reported_value: > 50 µM (inactive)

Fill in the recorded GI50 for this molecule, with OVCAR-5 as test system: O=C(C=P(c1ccccc1)(c1ccccc1)c1ccccc1)c1ccc(-c2cccs2)cc1
5 µM (inactive)

What reported GI50 corresponds to Cc1ccccc1C(=O)C1CCCCC1O (stereo unspecified) on OVCAR-5?
> 100 µM (inactive)

Record CC1(c2cccc(C(F)(F)F)c2)CC(c2cccc(C(F)(F)F)c2)=C(C#N)C(=C(C#N)C#N)N1 (stereo unspecified) : what is its GI50 with OVCAR-5?
18.2 µM (inactive)

// lookup GI50 | system=OVCAR-5 | key= CC(C)c1ccc2c(c1)/C(=C1/Nc3ccccc3/C1=N/O)C(=O)N2
16.1 µM (inactive)

GET /values?readout=GI50&system=OVCAR-5&item= CCCCCCC1=NOC(C(c2cc[nH]c2)N(C)[C@H](C(=O)OC)C(C)C)C1 (stereo partly specified)
> 100 µM (inactive)
